# subject_of_test: HLA-A*26:01
# method: IEDB peptide-MHC binding, purified MHC/competitive/fluorescence; filed as Kd, often an IC50 or EC50 that approximates it; bounds were set here for any values at or beyond the usual limits of such assays
# measurement_context: source organism: Giardia lamblia ATCC 50803
pKd: −log10 of the molar value.
quantity_name: pKd

Request: For the sequence shown here, MARPADASM , give the reported pKd.
Result: ≤ 4.70

* * *

# subject_of_test: HLA-A*02:06
# method: IEDB peptide-MHC binding, purified MHC/direct/fluorescence; filed as Kd, often an IC50 or EC50 that approximates it; bounds were set here for any values at or beyond the usual limits of such assays
# measurement_context: source organism: Lyssavirus rabies
quantity_name: pKd
Entry type: numeric. Quantity: pKd, the -log10 of concentration in molar units.

Request: For the sequence shown here, YLDNVGVHI , give the reported pKd.
Result: 7.44

* * *

# subject_of_test: HLA-A*02:01
# method: IEDB peptide-MHC binding, purified MHC/competitive/radioactivity; filed as Kd, often an IC50 or EC50 that approximates it; bounds were set here for any values at or beyond the usual limits of such assays
# measurement_context: source organism: Dengue virus 2 Thailand/NGS-C/1944
quantity_name: Kd
In your response, the unit should come after the numeric value.

Request: For the sequence shown here, GLFPVSIPI , give the reported Kd.
Result: 2.13 nM

* * *

# subject_of_test: HLA-B*58:01
# method: IEDB peptide-MHC binding, purified MHC/competitive/radioactivity; filed as Kd, often an IC50 or EC50 that approximates it; bounds were set here for any values at or beyond the usual limits of such assays
# measurement_context: source organism: Dengue virus 2 Jamaica/1409/1983
quantity_name: pKd
Entry type: numeric. Quantity: pKd, the -log10 of concentration in molar units.

chain: KTVWFVPSI
assay_result: 8.36

Request: For the sequence shown here, VSSVNMISRM , give the reported pKd.
Result: 6.16

Request: For the sequence shown here, ITASILLWY , give the reported pKd.
Result: 8.55

Request: For the sequence shown here, QSSITEAELT , give the reported pKd.
Result: 6.36

* * *

# subject_of_test: HLA-A*01:01
# method: IEDB peptide-MHC binding, purified MHC/direct/fluorescence; filed as Kd, often an IC50 or EC50 that approximates it; bounds were set here for any values at or beyond the usual limits of such assays
# measurement_context: source organism: Salmonella enterica
pKd: −log10 of the molar value.
quantity_name: pKd

Request: // lookup pKd | system=HLA-A*01:01 | key= RPQLGVGDV
Result: ≤ 4.70

* * *

# subject_of_test: HLA-A*02:01
# method: IEDB peptide-MHC binding, purified MHC/competitive/fluorescence; bounds were set here for any values at or beyond the usual limits of such assays
# measurement_context: source organism: Vaccinia virus
pIC50: −log10 of the molar value.
# maps each entry to its pIC50

Solved entries (count: 3):
chain: KIKDVSYND
pIC50: ≤ 3.24
//
chain: QVCIDILRS
pIC50: ≤ 4.01
//
chain: QLLLQKYPP
pIC50: ≤ 4.03

Request: For the sequence shown here, MMIQTRAAD , give the reported pIC50.
Result: ≤ 3.98

Request: For the sequence shown here, TLCDMIKGT , give the reported pIC50.
Result: 4.64
